Hey, just so you know, these numbers are from ChEMBL document CHEMBL1145498.

target: Serine/threonine-protein kinase PLK4 (Homo sapiens) (UniProt O00444)
Sequence (O00444 whole entry): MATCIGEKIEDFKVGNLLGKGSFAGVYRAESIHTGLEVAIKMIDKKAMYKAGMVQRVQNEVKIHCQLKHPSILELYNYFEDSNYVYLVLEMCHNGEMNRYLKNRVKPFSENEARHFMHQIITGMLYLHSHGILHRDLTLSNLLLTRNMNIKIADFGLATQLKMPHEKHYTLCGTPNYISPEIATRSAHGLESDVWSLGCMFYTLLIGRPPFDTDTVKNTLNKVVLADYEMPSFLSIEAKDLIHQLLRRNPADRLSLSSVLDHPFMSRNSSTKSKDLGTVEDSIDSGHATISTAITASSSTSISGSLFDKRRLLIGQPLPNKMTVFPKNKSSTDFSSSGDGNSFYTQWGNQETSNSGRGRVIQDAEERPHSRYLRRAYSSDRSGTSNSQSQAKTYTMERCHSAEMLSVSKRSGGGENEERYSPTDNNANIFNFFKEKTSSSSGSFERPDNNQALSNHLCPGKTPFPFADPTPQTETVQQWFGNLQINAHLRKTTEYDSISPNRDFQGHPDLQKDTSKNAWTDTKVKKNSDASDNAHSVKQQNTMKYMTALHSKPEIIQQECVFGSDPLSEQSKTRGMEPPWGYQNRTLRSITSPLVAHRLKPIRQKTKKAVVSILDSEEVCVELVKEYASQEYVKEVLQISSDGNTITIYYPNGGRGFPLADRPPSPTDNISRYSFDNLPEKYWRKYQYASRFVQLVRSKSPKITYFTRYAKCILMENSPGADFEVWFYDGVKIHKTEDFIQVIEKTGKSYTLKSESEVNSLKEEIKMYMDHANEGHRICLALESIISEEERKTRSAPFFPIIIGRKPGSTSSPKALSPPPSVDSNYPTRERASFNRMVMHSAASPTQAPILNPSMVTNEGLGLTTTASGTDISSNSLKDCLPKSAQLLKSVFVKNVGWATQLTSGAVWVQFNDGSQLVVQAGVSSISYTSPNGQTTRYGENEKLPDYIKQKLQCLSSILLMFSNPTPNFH
Tick met if ΔTm is 0.7 °C or greater. Tick not met if ΔTm is less than 0.7 °C.

>  <compound>
O=C1Cc2c([nH]c3ccc(Br)cc23)-c2ccccc2N1

>  <experimental_target>
Serine/threonine-protein kinase PLK4 (Homo sapiens) (UniProt O00444)

>  <discrete_label>
met

$$$$
>  <compound>
O=[N+]([O-])c1ccc(-c2nc(-c3ccc(F)cc3)c(-c3ccncc3)[nH]2)cc1

>  <experimental_target>
Serine/threonine-protein kinase PLK4 (Homo sapiens) (UniProt O00444)

>  <discrete_label>
met

$$$$
>  <compound>
NCCNc1ncc(C(N)=O)c(Nc2cccc(C(F)(F)F)c2)n1

>  <experimental_target>
Serine/threonine-protein kinase PLK4 (Homo sapiens) (UniProt O00444)

>  <discrete_label>
not met

$$$$
>  <compound>
O=C1c2ccccc2-c2n[nH]c3cccc1c23

>  <experimental_target>
Serine/threonine-protein kinase PLK4 (Homo sapiens) (UniProt O00444)

>  <discrete_label>
met

$$$$
>  <compound>
Cl.Cn1cc(C2=C(c3ccc4cc5n(c4c3)CCC(CN)C5)C(=O)NC2=O)c2ccccc21 (stereo not given)

>  <experimental_target>
Serine/threonine-protein kinase PLK4 (Homo sapiens) (UniProt O00444)

>  <discrete_label>
not met

$$$$
>  <compound>
COC(=O)[C@]1(O)C[C@@H]2O[C@@]1(C)n1c3ccccc3c3c4c(c5c6ccccc6n2c5c31)C(=O)NC4 (single isomer, unassigned)

>  <experimental_target>
Serine/threonine-protein kinase PLK4 (Homo sapiens) (UniProt O00444)

>  <discrete_label>
met

$$$$
>  <compound>
Ic1cccc(CSc2nnc(-c3ccncc3)o2)c1

>  <experimental_target>
Serine/threonine-protein kinase PLK4 (Homo sapiens) (UniProt O00444)

>  <discrete_label>
not met

$$$$
>  <compound>
Cn1cc(C2=C(c3cn(CCCSC(=N)N)c4ccccc34)C(=O)NC2=O)c2ccccc21

>  <experimental_target>
Serine/threonine-protein kinase PLK4 (Homo sapiens) (UniProt O00444)

>  <discrete_label>
met

$$$$
>  <compound>
Nc1nc(Nc2ccc(S(N)(=O)=O)cc2)nn1C(=S)Nc1c(F)cccc1F

>  <experimental_target>
Serine/threonine-protein kinase PLK4 (Homo sapiens) (UniProt O00444)

>  <discrete_label>
met

$$$$
>  <compound>
Cc1cc2ncc(-c3ccccc3)nc2cc1C

>  <experimental_target>
Serine/threonine-protein kinase PLK4 (Homo sapiens) (UniProt O00444)

>  <discrete_label>
not met

$$$$
>  <compound>
COc1ccc(COc2ccc(Cc3cnc(N)nc3N)cc2OC)cc1

>  <experimental_target>
Serine/threonine-protein kinase PLK4 (Homo sapiens) (UniProt O00444)

>  <discrete_label>
not met

$$$$
>  <compound>
Nc1cc2ncnc(Nc3cccc(Br)c3)c2cc1N

>  <experimental_target>
Serine/threonine-protein kinase PLK4 (Homo sapiens) (UniProt O00444)

>  <discrete_label>
met

$$$$
>  <compound>
O=C1NC(=O)C(c2c[nH]c3ccccc23)=C1c1c[nH]c2ccccc12

>  <experimental_target>
Serine/threonine-protein kinase PLK4 (Homo sapiens) (UniProt O00444)

>  <discrete_label>
met

$$$$
>  <compound>
Cc1cc(Nc2nc(-c3ccccc3)nc3ccccc23)n[nH]1

>  <experimental_target>
Serine/threonine-protein kinase PLK4 (Homo sapiens) (UniProt O00444)

>  <discrete_label>
met

$$$$
>  <compound>
CCN(CC)CCNC(=O)c1c(C)[nH]c(/C=C2\C(=O)Nc3ccc(Cl)cc32)c1C

>  <experimental_target>
Serine/threonine-protein kinase PLK4 (Homo sapiens) (UniProt O00444)

>  <discrete_label>
met

$$$$
>  <compound>
O=C(Nc1cccc(Nc2nccc(Nc3cccc(C(F)(F)F)c3)n2)c1)C1CC1

>  <experimental_target>
Serine/threonine-protein kinase PLK4 (Homo sapiens) (UniProt O00444)

>  <discrete_label>
met

$$$$
>  <compound>
CN(C)C[C@@H]1CCn2cc(c3ccccc32)C2=C(C(=O)NC2=O)c2cn(c3ccccc23)CCO1

>  <experimental_target>
Serine/threonine-protein kinase PLK4 (Homo sapiens) (UniProt O00444)

>  <discrete_label>
met

$$$$
>  <compound>
N=C(N)NCCNS(=O)(=O)c1cccc2cnccc12

>  <experimental_target>
Serine/threonine-protein kinase PLK4 (Homo sapiens) (UniProt O00444)

>  <discrete_label>
not met

$$$$
>  <compound>
CCCNC(=O)Nc1ccc(Oc2ncnc3cc(OC)c(OC)cc23)cc1Cl

>  <experimental_target>
Serine/threonine-protein kinase PLK4 (Homo sapiens) (UniProt O00444)

>  <discrete_label>
met

$$$$

====

biological target: Serine/threonine-protein kinase VRK2 (Homo sapiens)
ΔTm strictly under 0.8 °C means condition met; at 0.8 °C or over means condition not met.

>  <compound>
Oc1cccc(-c2nc(N3CCOCC3)c3oc4ncccc4c3n2)c1

>  <experimental_target>
Serine/threonine-protein kinase VRK2 (Homo sapiens)

>  <discrete_label>
condition met

$$$$
>  <compound>
NS(=O)(=O)c1ccc(Nc2nc(OCC3CCCCC3)c3nc[nH]c3n2)cc1

>  <experimental_target>
Serine/threonine-protein kinase VRK2 (Homo sapiens)

>  <discrete_label>
condition met

$$$$
>  <compound>
O=[N+]([O-])c1ccc(-c2nc(-c3ccc(F)cc3)c(-c3ccncc3)[nH]2)cc1

>  <experimental_target>
Serine/threonine-protein kinase VRK2 (Homo sapiens)

>  <discrete_label>
condition not met

$$$$
>  <compound>
O=C1NC(=O)C(c2c[nH]c3ccccc23)=C1c1c[nH]c2ccccc12

>  <experimental_target>
Serine/threonine-protein kinase VRK2 (Homo sapiens)

>  <discrete_label>
condition not met

$$$$
>  <compound>
CCN(CC)CCNC(=O)c1c(C)[nH]c(/C=C2\C(=O)Nc3ccc(Cl)cc32)c1C

>  <experimental_target>
Serine/threonine-protein kinase VRK2 (Homo sapiens)

>  <discrete_label>
condition met

$$$$
>  <compound>
COc1cc(/C=C/C(=O)CC(=O)/C=C/c2ccc(O)c(OC)c2)ccc1O

>  <experimental_target>
Serine/threonine-protein kinase VRK2 (Homo sapiens)

>  <discrete_label>
condition not met

$$$$
>  <compound>
C[C@@H](N)[C@H]1CC[C@H](C(=O)Nc2ccncc2)CC1

>  <experimental_target>
Serine/threonine-protein kinase VRK2 (Homo sapiens)

>  <discrete_label>
condition met

$$$$
>  <compound>
COC(=O)[C@]1(O)C[C@@H]2O[C@@]1(C)n1c3ccccc3c3c4c(c5c6ccccc6n2c5c31)C(=O)NC4 (single isomer, unassigned)

>  <experimental_target>
Serine/threonine-protein kinase VRK2 (Homo sapiens)

>  <discrete_label>
condition met

$$$$
>  <compound>
COc1ccc(CNC(=O)Nc2ncc([N+](=O)[O-])s2)cc1

>  <experimental_target>
Serine/threonine-protein kinase VRK2 (Homo sapiens)

>  <discrete_label>
condition met

$$$$
>  <compound>
CCOc1ccc(/C=C2/SC(=O)N(CCN)C2=O)cc1

>  <experimental_target>
Serine/threonine-protein kinase VRK2 (Homo sapiens)

>  <discrete_label>
condition met

$$$$
>  <compound>
CC(C)(C)c1cc(C=C2C(=O)C=CC2=O)cc(C(C)(C)C)c1O

>  <experimental_target>
Serine/threonine-protein kinase VRK2 (Homo sapiens)

>  <discrete_label>
condition met

$$$$
>  <compound>
N#CC(C#N)=Cc1ccc(O)c(O)c1

>  <experimental_target>
Serine/threonine-protein kinase VRK2 (Homo sapiens)

>  <discrete_label>
condition met

$$$$
>  <compound>
Cn1cc(C2=C(c3cn(CCCN)c4ccccc34)C(=O)NC2=O)c2ccccc21

>  <experimental_target>
Serine/threonine-protein kinase VRK2 (Homo sapiens)

>  <discrete_label>
condition met

$$$$
>  <compound>
O=c1c(-c2ccc(F)cc2)c(-c2ccncc2)[nH]n1-c1ccc(Cl)cc1

>  <experimental_target>
Serine/threonine-protein kinase VRK2 (Homo sapiens)

>  <discrete_label>
condition met

$$$$
>  <compound>
Cc1cncc2cccc(S(=O)(=O)N3CCCNC[C@@H]3C)c12

>  <experimental_target>
Serine/threonine-protein kinase VRK2 (Homo sapiens)

>  <discrete_label>
condition not met

$$$$
>  <compound>
CC(C)n1cnc2/c(=N/c3cccc(Cl)c3)nc(NCCO)[nH]c21

>  <experimental_target>
Serine/threonine-protein kinase VRK2 (Homo sapiens)

>  <discrete_label>
condition not met

$$$$
>  <compound>
CC(C)(C)n1nc(-c2ccc(Cl)cc2)c2c(N)ncnc21

>  <experimental_target>
Serine/threonine-protein kinase VRK2 (Homo sapiens)

>  <discrete_label>
condition met

$$$$
>  <compound>
Cc1cc(C=C2C(=O)C=CC2=O)cc(C)c1O

>  <experimental_target>
Serine/threonine-protein kinase VRK2 (Homo sapiens)

>  <discrete_label>
condition met

$$$$

====

# Serine/threonine-protein kinase 17A (Homo sapiens): ΔTm values follow
value_type: ΔTm (°C)

>  <molecule>
O=C(Nc1cccc(Nc2nccc(Nc3cccc(C(F)(F)F)c3)n2)c1)C1CC1

>  <experimental_result>
1.5

$$$$
>  <molecule>
O=C1c2ccccc2-c2n[nH]c3cccc1c23

>  <experimental_result>
10

$$$$
>  <molecule>
Cc1nc2sccn2c(=O)c1CCN1CCC(=C(c2ccccc2)c2ccc(F)cc2)CC1

>  <experimental_result>
8.8

$$$$
>  <molecule>
CSc1nc(-c2ccc(F)cc2)c(-c2ccnc(NC(C)c3ccccc3)c2)[nH]1 (racemic)

>  <experimental_result>
0.1

$$$$
>  <molecule>
C[C@@H]1C[C@H]2O[C@@H]2/C=C\C=C\C(=O)Cc2c(Cl)c(O)cc(O)c2C(=O)O1

>  <experimental_result>
1

$$$$
